meta.source: ChEMBL document CHEMBL3988442

- TEST TARGET: Sialic acid-binding Ig-like lectin 9 (Homo sapiens) (UniProt Q9Y336)
- Sequence (Q9Y336 whole entry): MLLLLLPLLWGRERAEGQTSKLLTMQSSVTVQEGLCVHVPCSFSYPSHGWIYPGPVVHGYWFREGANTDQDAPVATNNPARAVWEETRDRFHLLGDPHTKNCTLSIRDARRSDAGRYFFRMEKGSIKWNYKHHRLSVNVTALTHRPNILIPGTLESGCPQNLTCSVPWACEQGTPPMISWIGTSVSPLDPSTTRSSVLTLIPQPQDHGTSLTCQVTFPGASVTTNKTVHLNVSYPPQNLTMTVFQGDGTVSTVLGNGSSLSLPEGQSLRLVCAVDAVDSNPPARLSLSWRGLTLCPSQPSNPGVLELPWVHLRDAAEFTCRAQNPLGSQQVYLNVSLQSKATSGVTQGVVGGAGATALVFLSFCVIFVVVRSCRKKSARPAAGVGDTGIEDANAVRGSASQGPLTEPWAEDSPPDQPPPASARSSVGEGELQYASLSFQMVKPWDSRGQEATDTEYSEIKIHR
- PROTOCOL DETAILS: Hs-Siglec9 ALPHAscreen SOP 20170721
- Design: scale not given: direction of the effect not stated beside the values
- ASSAY CONTEXT: 10 µM
MEASURE: Percent Effect (%)

- CC(=O)NCCc1ccc(C(=O)N2CCCC2c2cnn(C)c2)cc1 (configuration not stated): -8.62
- CC(C)OCCC(=O)N(C)CCCc1cc(-c2ccccc2)no1: -0.12
- CC(=O)N(Cc1ncc(C)o1)C1CCN(CCCc2cnn(C)c2)C1 (configuration not stated): -5.35
- CCc1nccn1C1CCCN(C(=O)c2csc(NC(C)=O)n2)C1 (configuration not stated): 14.2
- CCc1nc2n(n1)CC(NCC(=O)Nc1ccc(Cl)cn1)CC2 (configuration not stated): -1.69
- O=C1[C@H]2CN(c3ncccn3)C[C@H]2CN1Cc1ccncc1: -4.76
- Cc1nc(C(C)(C)NC(=O)Nc2cccc(C#N)c2)no1: 8.84
